assay: AUC (0 to t) in mouse at 50 mg/kg, po; type: ADME, organism-based; details: in vivo
So I've got a bunch of compounds here, and I need their AUC(0-t) values.
Report as a plain number; the unit ng·h/mL is understood.

Name the reported AUC(0-t) value associated with the compound CC(C)CCN[C@@H]1CCc2cc(O)c(N3CC(=O)NS3(=O)=O)c(F)c2C1 [OSUNPROTAFIB]
3820

If you can, please state the reported AUC(0-t) value of `CCN1CCc2cc(O)c(N3CC(=O)NS3(=O)=O)c(F)c2CC1` .
69200

---

Biological target: Tyrosine-protein phosphatase non-receptor type 2 (Homo sapiens, UniProt P17706)
Sequence (P17706 whole entry): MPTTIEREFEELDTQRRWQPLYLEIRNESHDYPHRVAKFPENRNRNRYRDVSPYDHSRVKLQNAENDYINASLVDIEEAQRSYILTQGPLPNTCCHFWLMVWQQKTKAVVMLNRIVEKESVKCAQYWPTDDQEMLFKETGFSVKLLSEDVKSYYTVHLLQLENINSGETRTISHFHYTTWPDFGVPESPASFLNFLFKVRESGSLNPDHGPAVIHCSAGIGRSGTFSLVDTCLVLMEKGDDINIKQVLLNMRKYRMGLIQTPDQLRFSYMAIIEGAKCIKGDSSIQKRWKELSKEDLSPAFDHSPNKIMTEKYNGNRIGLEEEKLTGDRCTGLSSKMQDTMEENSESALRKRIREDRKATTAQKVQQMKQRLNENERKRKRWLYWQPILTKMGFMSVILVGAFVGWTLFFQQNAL
quantity: pKd
A value of pKd is the negative decimal logarithm of a concentration given in moles per litre.

What measured pKd goes with `CCN1CCc2cc(O)c(N3CC(=O)NS3(=O)=O)c(F)c2CC1` ?
8.06
